The substances listed here are annotated with their OC43 vRNA reduction.
system: HCoV-OC43; assay: OC43 virion RNA, Branched DNA assay, infected HCT8 cells; assay type: cell-based, human coronavirus OC43; conditions: 10 nM siRNA, HCT8 cells
Experimental Endpoint: OC43 vRNA reduction (%)

- Substance: "26 (GAAGCAAAGAAAGAAGAAUCCTTAUUCUUCUUUCUUUGCUUCCATT; siRNA; Self-complementary hairpin strand, chemistry not given here, further chemistry not given here; listed as Homo sapiens) [compound 26]"
  Reported Result: 91
- Substance: "27 (GGUCUUUUUGACUAAACCUCUTTAGGUUUAGUCAAAAAGACCAATT; siRNA; Self-complementary hairpin strand, chemistry not given here, further chemistry not given here; listed as Homo sapiens) [compound 27]"
  Reported Result: 94
- Substance: "43 (GUAUCGAGGCGGACGACGACCUUGGUCGUCGUCCGCCUCGAUACUU; siRNA; Self-complementary hairpin strand, chemistry not given here, further chemistry not given here; listed as Homo sapiens) [compound 43]"
  Reported Result: 94
- Substance: "30 (AGGAUAAGAUCAAUGCCCUUCUUGAAGGGCAUUGAUCUUAUCCUUU; siRNA; Self-complementary hairpin strand, chemistry not given here, further chemistry not given here; listed as Homo sapiens) [compound 30]"
  Reported Result: 90

Where do these numbers come from? They come from patent US11613750B2.
